# System: Rattus norvegicus
# protocol text: Inhibitory activity against the pressor response induced by Angiotensin II (AII) in conscious rats, at 1 mg/kg p.o. at 7 hr
# Format: functional
# experimental conditions: route oral
Give measured inhibition in vivo at 1 mg/kg for each item. Keep answers brief.
Quick note: give the figure in %, leave out the unit.

Find inhibition in vivo at 1 mg/kg for CNc1nc2cccc(C(=O)O)c2n1Cc1ccc(-c2ccccc2-c2noc(O)n2)cc1 on Rattus norvegicus and write it down.
13

Find inhibition in vivo at 1 mg/kg for CCCCc1nc2cccc(C(=O)O)c2n1Cc1ccc(-c2ccccc2-c2noc(O)n2)cc1 on Rattus norvegicus and write it down.
64

Find inhibition in vivo at 1 mg/kg for CCCc1nc2cccc(C(=O)O)c2n1Cc1ccc(-c2ccccc2-c2noc(O)n2)cc1 on Rattus norvegicus and write it down.
88

Find inhibition in vivo at 1 mg/kg for CCOc1nc2cccc(C(=O)O)c2n1Cc1ccc(-c2ccccc2-c2noc(=O)[nH]2)cc1 on Rattus norvegicus and write it down.
100

Find inhibition in vivo at 1 mg/kg for CCCOc1nc2cccc(C(=O)O)c2n1Cc1ccc(-c2ccccc2-c2noc(O)n2)cc1 on Rattus norvegicus and write it down.
100

Find inhibition in vivo at 1 mg/kg for CSc1nc2cccc(C(=O)O)c2n1Cc1ccc(-c2ccccc2-c2noc(O)n2)cc1 on Rattus norvegicus and write it down.
100

Find inhibition in vivo at 1 mg/kg for CCNc1nc2cccc(C(=O)O)c2n1Cc1ccc(-c2ccccc2-c2noc(O)n2)cc1 on Rattus norvegicus and write it down.
6

Find inhibition in vivo at 1 mg/kg for COc1nc2cccc(C(=O)O)c2n1Cc1ccc(-c2ccccc2-c2noc(O)n2)cc1 on Rattus norvegicus and write it down.
88

Find inhibition in vivo at 1 mg/kg for CCSc1nc2cccc(C(=O)O)c2n1Cc1ccc(-c2ccccc2-c2noc(O)n2)cc1 on Rattus norvegicus and write it down.
100

Find inhibition in vivo at 1 mg/kg for CCCSc1nc2cccc(C(=O)O)c2n1Cc1ccc(-c2ccccc2-c2noc(O)n2)cc1 on Rattus norvegicus and write it down.
100
